test system: RERF-LC-Sq1 (Squamous Cell Lung Carcinoma); experiment: Bliss excess, mean over the matrix (fraction); higher = more synergy;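 also: after 72 h of two-drug dosing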
ENDPOINT LABEL: Bliss excess
// return a plain number; no unit text

## Task Please state recorded Bliss excess (tested on RERF-LC-Sq1 (Squamous Cell Lung Carcinoma)) of COc1cccc(OCCCN)c1-c1cc(Nc2cnc(C#N)cn2)n[nH]1 [Prexasertib] + CN(C)CCCOc1ccc(-c2ccc3ncc4c(c3c2)n(C2CCOCC2)c(=O)n4C)cn1 [AZD0156] (first compound max 1 µM, 7x7, partner max 1 µM);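 also: after 72 h of two-drug dosing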
## Result -0.0209

## Task Please state recorded Bliss excess (tested on RERF-LC-Sq1 (Squamous Cell Lung Carcinoma)) of CN(CCO)CC[C@H](CSc1ccccc1)Nc1ccc(S(=O)(=O)NC(=O)c2ccc(N3CCC([C@@H](O)c4ccccc4-c4ccc(Cl)cc4)CC3)cc2)cc1S(=O)(=O)C(F)(F)F [AZD4320] + C1CN(CCC1(C(=O)N[C@@H](CCO)C2=CC=C(C=C2)Cl)N)C3=NC=NC4=C3C=CN4 [Capivasertib] (first compound max 1 µM, 7x7, partner max 3 µM);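 also: after 72 h of two-drug dosing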
## Result -0.0223

Data credit: the supplement of paper PMC11061612
